Data credit: patent US20110009628A1

# experiment_summary: in vivo
# Set-up: species or system Golden Syrian hamsters
# cond: male, Golden Syrian, hamster, po, 30 mg/kg
# Experimental: For testing the efficacy of Compound 141 (phosphate salt of Compound 127) or its enantiomers (Compound 162/Compound 163) the following suspension formulation procedure was developed to make 100 ml of Compound 141 in suspension at 10 mg/ml concentration in 0.1 M tartaric buffer pH. 3 containing 0.5% hydroxypropylcellulose H-type (HPC-H): Step 1: 1.50 g L-(+)-tartaric acid was dissolved in 100 mL water to prepare a tartaric acid solution. […]
measure: MRT last

## Task So what's the measured MRT last for this one? COc1cc2c(cc1OC)C1Cc3ccc(OC)c(OS(=O)(=O)c4cccc(F)c4)c3CN1CC2 (single isomer, unassigned) [Compound 162]
## Result 3.81 h

====

# experiment_summary: Pharmacokinetics of Compound 141 in male Wistar rats, intravenous and oral
# Format: in vivo
# cond: Wistar, rat, plasma; male rats, IV (2 mg/kg), mean
Where a name gives a salt, the structure may show the parent alone.
measure: Cmax (ng/mL)
The response must be a number in ng/mL with no trailing unit.

## Task Given the entry COc1cc2c(cc1OC)C1Cc3ccc(OC)c(OS(=O)(=O)c4cccc(F)c4)c3CN1CC2 (racemic) [Compound 141, phosphate Salt] , report its measured Cmax.
## Result 1550

====

# experiment_summary: in vivo
# Design: species or system Golden Syrian hamsters
# cond: male, Golden Syrian, hamster, po, 30 mg/kg
measure: AUC(0-t)
Provide a numeric answer, followed by its unit.

## Task So what's the measured AUC(0-t) for this one? COc1cc2c(cc1OC)C1Cc3ccc(OC)c(OS(=O)(=O)c4cccc(F)c4)c3CN1CC2 (single isomer, unassigned) [Compound 162]
## Result 2020 ng·h/mL

====

# experiment_summary: Pharmacokinetics of Compound 141 in male Wistar rats, intravenous and oral
# Format: in vivo
# cond: Wistar, rat, plasma; male rats, IV (2 mg/kg), mean; read-out: MRT(0-∞)
# Procedure: For intravenous administration, blood samples were collected via retro-orbital puncture into heparinized tubes at pre-dose and 0.083, 0.25, 0.5, 1, 2, 6, 8, and 24 hours (hr) post-dose. For oral administration, blood samples were collected at following time points: 0, 0.167, 0.417, 0.75, 1, 2, 4, 6, 8, and 24 hr. […] Concentrations of 72(+) and 72(−) in plasma samples were determined using a high performance liquid chromatography/mass spectrometry (HPLC/MS/MS) method. […]
Structures can show the parent of a compound that is named as a salt.
measure: MRT inf (h)
Field: numeric (h). Do not append units.

## Task Please report the recorded MRT inf for COc1cc2c(cc1OC)C1Cc3ccc(OC)c(OS(=O)(=O)c4cccc(F)c4)c3CN1CC2 (racemic) [Compound 141, phosphate Salt] .
## Result 1.62

====

# experiment_summary: Pharmacokinetics of Compound 141 in male Wistar rats, intravenous and oral
# Format: in vivo
# cond: Wistar, rat, plasma; male rats, IV (2 mg/kg), mean; read-out: Vz
Counter-ions that a name gives are not always drawn.
measure: Vd (L/kg)
Field: numeric (L/kg). Do not append units.

## Task Given COc1cc2c(cc1OC)C1Cc3ccc(OC)c(OS(=O)(=O)c4cccc(F)c4)c3CN1CC2 (racemic) [Compound 141, phosphate Salt] , state its recorded Vd.
## Result 8.31

====

# experiment_summary: Pharmacokinetics of Compound 141 in male Wistar rats, intravenous and oral
# Format: in vivo
# cond: Wistar, rat, plasma; male rats, IV (2 mg/kg), mean
Where a name gives a salt, the structure may show the parent alone.
measure: AUC(0-inf) (ng·h/mL)
Just the number please, in ng·h/mL, no unit attached.

## Task Need AUC(0-inf), item COc1cc2c(cc1OC)C1Cc3ccc(OC)c(OS(=O)(=O)c4cccc(F)c4)c3CN1CC2 (racemic) [Compound 141, phosphate Salt]
## Result 1080
